# System: Rattus norvegicus
# procedureText: Antiinflammatory activity in immature rat assessed as inhibition of cantharidin-induced inflammation at 200 ug administered topically to outer surface of ear after 72 hrs relative to control
# Assay type: functional
readout: inhibition (INH) (%)

{"molecule": "NCCNC(c1ccccc1)C(O)c1ccccc1 (single isomer, unassigned; (+))", "readout": "inhibition (INH)", "assayValue": 0}
{"molecule": "NCCN[C@@H](c1ccc(Cl)cc1)[C@@H](O)c1ccccc1 (racemic)", "readout": "inhibition (INH)", "assayValue": 12}
{"molecule": "CN(C)CCCN[C@@H](c1ccccc1)[C@@H](O)c1ccccc1 (racemic)", "readout": "inhibition (INH)", "assayValue": 16}
{"molecule": "CC(=O)NCCN(C(C)=O)[C@@H](c1ccccc1)[C@@H](OC(C)=O)c1ccccc1 (racemic)", "readout": "inhibition (INH)", "assayValue": 7}
{"molecule": "Cc1ccc([C@H](O)[C@@H](NCCN)c2ccccc2)cc1 (racemic)", "readout": "inhibition (INH)", "assayValue": 5}
{"molecule": "NCCN[C@@H](c1ccc(Cl)cc1)[C@@H](O)c1ccc(Cl)cc1 (racemic)", "readout": "inhibition (INH)", "assayValue": 16}
{"molecule": "O[C@@H](c1ccccc1)[C@@H](NCCN[C@@H](c1ccccc1)[C@@H](O)c1ccccc1)c1ccccc1", "readout": "inhibition (INH)", "assayValue": 17}
{"molecule": "CN(CCN)[C@@H](c1ccccc1)[C@@H](O)c1ccccc1 (racemic)", "readout": "inhibition (INH)", "assayValue": 1}
{"molecule": "NCCN[C@@H](c1ccccc1)[C@H](O)c1ccccc1 (racemic)", "readout": "inhibition (INH)", "assayValue": 9}
{"molecule": "NCCNC(c1ccccc1)C(O)c1ccccc1 (stereo in doubt; 8a)", "readout": "inhibition (INH)", "assayValue": 19}
{"molecule": "NCCCN[C@@H](c1ccccc1)[C@@H](O)c1ccccc1 (racemic)", "readout": "inhibition (INH)", "assayValue": 21}
{"molecule": "CC(=O)NCCN(C(C)=O)[C@@H](c1ccccc1)[C@@H](O)c1ccccc1 (racemic)", "readout": "inhibition (INH)", "assayValue": 9}
{"molecule": "CN(C)CCN[C@@H](c1ccccc1)[C@@H](O)c1ccccc1 (racemic)", "readout": "inhibition (INH)", "assayValue": 8}
{"molecule": "NCCCCN[C@@H](c1ccccc1)[C@@H](O)c1ccccc1 (racemic)", "readout": "inhibition (INH)", "assayValue": 37}
{"molecule": "CC(C)=NCCN[C@@H](c1ccccc1)[C@@H](O)c1ccccc1 (relative stereo)", "readout": "inhibition (INH)", "assayValue": 10}
{"molecule": "CNCCN[C@@H](c1ccccc1)[C@@H](O)c1ccccc1 (racemic)", "readout": "inhibition (INH)", "assayValue": 20}
{"molecule": "CC(=O)NCCN[C@@H](c1ccccc1)[C@@H](O)c1ccccc1 (racemic)", "readout": "inhibition (INH)", "assayValue": 0}
{"molecule": "NCCN[C@@H](c1ccccc1)[C@@H](O)c1ccccc1 (racemic)", "readout": "inhibition (INH)", "assayValue": 46}
{"molecule": "NCCN[C@@H](c1ccccc1)[C@@H](O)c1ccc(Cl)cc1 (racemic)", "readout": "inhibition (INH)", "assayValue": 35}
